Each entry below lists one item and its recorded IC50 value.
Target under test: Phosphodiesterase 4 (Homo sapiens, UniProt P27815+Q08499+Q07343+Q08493)
Test summary: Inhibition of PDE4 isolated from human U937 cells using [3H]-cAMP as substrate after 30 mins by liquid scintillation counting analysis
Assay type: cell-free
Setup conditions: u-937
Write the value in µM as a bare number.

Previously resolved entries follow.
O=C(Nc1c(Cl)cncc1Cl)C(=O)c1cc(Cc2ccc(O)cc2)n2ccccc12: 0.015
O=C(Nc1c(Cl)cncc1Cl)C(=O)c1cc(Cc2ccc(F)cc2)n2ccc(F)cc12: 0.013
COc1ccc(Cc2cc(C(=O)C(=O)Nc3c(Cl)cncc3Cl)c3ccccn23)cc1: 0.04

// sample "O=C(Nc1c(Cl)cncc1Cl)C(=O)c1cc(Cc2ccc(Cl)cc2)n2ccccc12" , its IC50 was 0.016

// sample "O=C(Nc1c(Cl)c[n+]([O-])cc1Cl)C(=O)c1cc(Cc2ccc(F)cc2)c2ccccn12" , its IC50 was 0.029

// sample "N#Cc1ccc(Cc2cc(C(=O)C(=O)Nc3c(Cl)cncc3Cl)c3ccccn23)cc1" , its IC50 was 0.116

// sample "O=C(Nc1cccnc1)C(=O)c1cc(Cc2ccc(Cl)cc2)n2ccccc12" , its IC50 was 0.165

// sample "COc1ccc(Cc2cc(C(=O)C(=O)Nc3c(Cl)cncc3Cl)c3cc(Cl)ccn23)cc1" , its IC50 was 0.012

// sample "COc1ccc(Cc2cc(C(=O)C(=O)Nc3c(Cl)c[n+]([O-])cc3Cl)c3ccccn23)cc1" , its IC50 was 0.08

// sample "O=C(Nc1c(Cl)c[n+]([O-])cc1Cl)C(=O)c1cc(Cc2ccc(Cl)cc2)n2ccccc12" , its IC50 was 0.019

// sample "O=C(Nc1cccnc1)C(=O)c1cc(Cc2ccccc2)n2ccccc12" , its IC50 was 0.348

---

Target under test: Phosphodiesterase 4 (Homo sapiens, UniProt P27815+Q08499+Q07343+Q08493)
Test summary: Inhibition of PDE4 isolated from human U937 cells using [3H]-cAMP as substrate after 30 mins by liquid scintillation counting analysis
Format: cell-free
Setup conditions: u-937
Property: IC50 (nM)
Write the value in nM as a bare number.

Previously resolved entries follow.
O=C(Nc1c(Cl)cncc1Cl)C(=O)c1cc(Cc2ccc(Cl)cc2)n2ccc(Cl)cc12: 26
O=C(Nc1c(Br)ccnc1Br)C(=O)c1cc(Cc2ccc(F)cc2)n2ccccc12: 10000
COc1ccc(NC(=O)C(=O)c2cc(Cc3ccc(C#N)cc3)n3ccccc23)cn1: 1500
Nc1ccc(Cc2cc(C(=O)C(=O)Nc3cccnc3)c3ccccn23)cc1: 824
O=C(Nc1cccnc1)C(=O)c1cc(Cc2ccc(F)cc2)n2ccc(O)cc12: 414
COc1ccn2c(Cc3ccc(Cl)cc3)cc(C(=O)C(=O)Nc3cccnc3)c2c1: 1000

// sample "O=C(Nc1c(Cl)cccc1Cl)C(=O)c1cc(Cc2ccc(F)cc2)n2ccccc12" , its IC50 was 10000

// sample "O=C(Nc1c(Cl)cncc1Cl)C(=O)c1cc(Cc2ccc(F)cc2)n2ccc(Cl)cc12" , its IC50 was 28

// sample "O=C(Nc1c(Cl)cncc1Cl)C(=O)c1cn(Cc2ccc(F)cc2)c2ccc(O)cc12" , its IC50 was 14

// sample "O=C(Nc1cccnc1)C(=O)c1cc(Cc2ccc(F)cc2)n2ccc(Cl)cc12" , its IC50 was 239

// sample "N#Cc1ccc(Cc2cc(C(=O)C(=O)Nc3c(Cl)ccnc3Cl)c3ccccn23)cc1" , its IC50 was 250

// sample "O=C(Nc1c(Cl)c[n+]([O-])cc1Cl)C(=O)c1cc(Cc2ccc(O)cc2)n2ccccc12" , its IC50 was 29

// sample "O=C(Nc1cccnc1)C(=O)c1cc(Cc2ccc(F)cc2)n2ccccc12" , its IC50 was 341

// sample "N#Cc1ccc(Cc2cc(C(=O)C(=O)Nc3cccnc3)c3ccccn23)cc1" , its IC50 was 719

// sample "O=C(Nc1cccnc1)C(=O)c1cc(Cc2ccc(C(F)(F)F)cc2)n2ccccc12" , its IC50 was 372

// sample "O=C(Nc1c(Cl)c[n+]([O-])cc1Cl)C(=O)c1cc(Cc2ccc(F)cc2)n2ccc(Cl)cc12" , its IC50 was 54

// sample "N#Cc1ccc(Cc2cc(C(=O)C(=O)Nc3cccnc3Cl)c3ccccn23)cc1" , its IC50 was 4700

// sample "O=C(Nc1c(Cl)cc(C(F)(F)F)cc1Cl)C(=O)c1cc(Cc2ccc(F)cc2)n2ccccc12" , its IC50 was 10000

// sample "O=C(Nc1c(Cl)cncc1Cl)C(=O)c1cc(Cc2ccc(F)cc2)c2ccccn12" , its IC50 was 6

// sample "N#Cc1ccc(Cc2cc(C(=O)C(=O)Nc3c(Cl)cncc3Cl)c3cc(Cl)ccn23)cc1" , its IC50 was 82

// sample "O=C(Nc1c(Cl)c[n+]([O-])cc1Cl)C(=O)c1cc(Cc2ccc(F)cc2)n2ccc(F)cc12" , its IC50 was 18

// sample "O=C(Nc1c(Cl)cncc1Cl)C(=O)c1cc(Cc2ccc(O)cc2)n2ccc(Cl)cc12" , its IC50 was 2

// sample "O=C(Nc1cccnc1)C(=O)c1cc(Cc2ccc(O)cc2)n2ccccc12" , its IC50 was 327

// sample "O=C(Nc1c(Cl)ccnc1Cl)C(=O)c1cc(Cc2ccc(Cl)cc2)n2ccccc12" , its IC50 was 84

// sample "O=C(Nc1cccnc1)C(=O)c1cc(Cc2ccc([N+](=O)[O-])cc2)n2ccccc12" , its IC50 was 569

// sample "CC(C)c1ccc(Cc2cc(C(=O)C(=O)Nc3cccnc3)c3ccccn23)cc1" , its IC50 was 362

// sample "COc1ccnc(OC)c1NC(=O)C(=O)c1cc(Cc2ccc(C#N)cc2)n2ccccc12" , its IC50 was 10000

// sample "COc1ccc(Cc2cc(C(=O)C(=O)Nc3cccnc3)c3ccccn23)cc1" , its IC50 was 447
